Test system: Escherichia coli TOP10
Experiment: shrunken log2 fold change of peptide-encoding DNA abundance (4.5 h post-induction vs induction); higher = less antimicrobial activity (less host growth inhibition)
Details: time post-induction: 4.5 h; library: site-saturation at positions 5, 18, 19, 20
Label YES when shrunken log2 fold change is at or above -0.07; otherwise label NO.

• RRIRARPPRLPRPRPRPEFCPRP = YES
• RRIRYRPPRLPRPRPRPYHWPRP = NO
• RRIRQRPPRLPRPRPRPRPCPRP = YES
• RRIRARPPRLPRPRPRPPLGPRP = YES
• RRIRTRPPRLPRPRPRPANTPRP = NO
• RRIRVRPPRLPRPRPRPLAKPRP = NO
• RRIRQRPPRLPRPRPRPKIHPRP = NO
• RRIRRRPPRLPRPRPRPYCMPRP = NO
• RRIRGRPPRLPRPRPRPPQQPRP = YES
• RRIRCRPPRLPRPRPRPMLYPRP = NO
• RRIRYRPPRLPRPRPRPDCCPRP = NO
• RRIRIRPPRLPRPRPRPLGAPRP = YES
• RRIRPRPPRLPRPRPRPWCMPRP = NO
• RRIRGRPPRLPRPRPRPCIHPRP = YES
• RRIRKRPPRLPRPRPRPVMPPRP = YES

----------
shrunken log2 fold change values by entry
System: Escherichia coli TOP10;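 also: peptides expressed intracellularly from a pBAD plasmid library in pooled LB shake-flask culture, induced with 0.3% L-arabinose, DNA abundance read by NGS, three biological replicates, DESeq2 with apeglm shrinkage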
Experiment: shrunken log2 fold change of peptide-encoding DNA abundance (4.5 h post-induction vs induction); higher = less antimicrobial activity (less host growth inhibition)
Settings: time post-induction: 4.5 h; library: site-saturation at positions 5, 18, 19, 20
measurement_kind: shrunken log2 fold change

• RRIRKRPPRLPRPRPRPQKLPRP = 0.015
• RRIRIRPPRLPRPRPRPYAWPRP = -0.402
• RRIRARPPRLPRPRPRPSVSPRP = -0.457
• RRIRMRPPRLPRPRPRPPCCPRP = 0.928
• RRIRHRPPRLPRPRPRPHQAPRP = -0.0163
• RRIRHRPPRLPRPRPRPWLQPRP = 0.0358
• RRIRMRPPRLPRPRPRPQFWPRP = 0.245
• RRIRMRPPRLPRPRPRPRRQPRP = 1.13
• RRIRNRPPRLPRPRPRPNHEPRP = -0.00884
• RRIRVRPPRLPRPRPRPHASPRP = -0.15
• RRIRSRPPRLPRPRPRPVSQPRP = -0.0165
• RRIRLRPPRLPRPRPRPEVSPRP = 0.254
• RRIRNRPPRLPRPRPRPDGLPRP = 0.038
• RRIRTRPPRLPRPRPRPKEHPRP = -0.174
• RRIRMRPPRLPRPRPRPRIWPRP = 0.726
• RRIRIRPPRLPRPRPRPMRRPRP = 0.0307
• RRIRPRPPRLPRPRPRPIQHPRP = -0.053
• RRIRERPPRLPRPRPRPTVEPRP = -0.0686
• RRIRTRPPRLPRPRPRPQWPPRP = 0.0505
• RRIRVRPPRLPRPRPRPPWIPRP = 0.218
• RRIRGRPPRLPRPRPRPPDRPRP = 0.564
• RRIRIRPPRLPRPRPRPGKGPRP = -0.185
• RRIRPRPPRLPRPRPRPNIRPRP = -0.743
• RRIRARPPRLPRPRPRPVDFPRP = 0.39
